# Tested on: Aβ42 production in N2A-APPswe cells
# METHOD_DESCRIPTION: Aβ42 in conditioned medium of N2A-APPswe cells by ELISA, 18 h treatment
# Assay type: cell-based
# CONDITION_DESCRIPTION: N2a-APPswe, read-out: IC50 in lowering Aβ42 production, N2A-APPswe cells; mean ± standard deviation; n ≥ 3
# Excerpt: Sigma-Aldrich Chemical Co. unless otherwise specified. SSG (1) was purchased from Wako Pure Chemical Industries, Ltd. Diosgenin (6), Dioscin (9), Polyphyllin D (10), Timosaponin BI (22) and Timosaponin BII (23) were purchased from Chengdu Must Bio-Technology Co. Ltd. Yamogenin (7) was bought from Ambinter c/o Greenpharma while Smilagenin (24) was bought from Steraloids Inc. Substances dissolved in DMSO as stock solutions. Cell culture medium constituents were purchased from Life Technologies, Inc. […]
pIC50: −log10 of the molar value.
PROPERTY_LABEL: pIC50

The examples below pair each entry with its known result.
[
  {
    "COMPOUND": "C[C@H]1CC[C@@]2(OC1)O[C@H]1C[C@H]3[C@@H]4CC[C@@H]5C[C@@H](O)CC[C@]5(C)[C@H]4CC[C@]3(C)[C@H]1[C@@H]2C [SSG (1), sarsasapogenin]",
    "TARGET_OF_ASSAY": "Aβ42 production in N2A-APPswe cells",
    "pIC50": 4.28
  },
  {
    "COMPOUND": "CO[C@]1(CC[C@H](C)CO[C@@H]2O[C@H](CO)[C@@H](O)[C@H](O)[C@H]2O)O[C@H]2C[C@H]3[C@@H]4CC[C@@H]5C[C@@H](O[C@@H]6O[C@H](CO)[C@H](O)[C@H](O)[C@H]6O[C@@H]6O[C@H](CO)[C@@H](O)[C@H](O)[C@H]6O)CC[C@]5(C)[C@H]4CC[C@]3(C)[C@H]2[C@@H]1C [Timosaponin B I (22), Timosaponin B I]",
    "TARGET_OF_ASSAY": "Aβ42 production in N2A-APPswe cells",
    "pIC50": "< 4.00"
  },
  {
    "COMPOUND": "C[C@H](CO)CC[C@H]1O[C@H]2C[C@H]3[C@@H]4CC[C@@H]5C[C@@H](O)CC[C@]5(C)[C@H]4CC[C@]3(C)[C@H]2[C@@H]1C [Dihydrosarsasapogenin (21), dihydrosarsasapogenin]",
    "TARGET_OF_ASSAY": "Aβ42 production in N2A-APPswe cells",
    "pIC50": "< 4.00"
  }
]

query: Record request: pIC50 value, item C[C@H]1CC[C@@]2(OC1)O[C@H]1C[C@H]3[C@@H]4CC[C@H]5C[C@@H](O)CC[C@]5(C)[C@H]4CC[C@]3(C)[C@H]1[C@@H]2C [Neotigogenin (14), neotigogenin]
result: < 4.00

====

Quick reference for pIC50 among some compounds
# Test system: Aβ42 production in N2A-APPswe cells
# METHOD_DESCRIPTION: Aβ42 in conditioned medium of N2A-APPswe cells by ELISA, 18 h treatment
# Type: cell-based
# CONDITION_DESCRIPTION: N2a-APPswe, read-out: IC50 in lowering Aβ42 production, N2A-APPswe cells; mean ± standard deviation; n ≥ 3
pIC50: −log10 of the molar value.

Sample answers from the record:
[
  {
    "COMPOUND": "C[C@@H]1CC[C@@]2(OC1)O[C@H]1C[C@H]3[C@@H]4CC[C@H]5C[C@@H](O)CC[C@]5(C)[C@H]4CC[C@]3(C)[C@H]1[C@@H]2C",
    "pIC50": "< 4.00"
  },
  {
    "COMPOUND": "C[C@H]1CC[C@@]2(OC1)O[C@H]1C[C@H]3[C@@H]4CC[C@@H]5C[C@@H](O[C@@H]6O[C@H](CO)[C@@H](O)[C@H](O)[C@H]6O)CC[C@]5(C)[C@H]4CC[C@]3(C)[C@H]1[C@@H]2C [AA (5), Asparagoside A]",
    "pIC50": "~5.22"
  }
]

query: Which pIC50 value is on record for COC1OC(Cn2cc(COC3CCC4(C)C(CCC5C4CCC4(C)C5CC5OC6(CCC(C)CO6)C(C)C54)C3)nn2)C(O)C(O)C1O (stereo not drawn) ?
result: 5.19
